System: HPK1
run-conditions: concentration: 1 μM, replicates: in singlicate; n = 1;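 note: KINOMEscan kinase panel screen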
assay-endpoint: %Inh
Don't forget the unit after the number, please.

%Inh for CC(C)c1nc(-c2cccc(NS(=O)(=O)c3c(F)cccc3F)c2F)c(-c2ccnc(Nc3ccc(N4CCOCC4)nc3)n2)s1 is 88%

Nc1ncc(-c2cccnc2)c2scc(-c3ccc4c(c3)CCN4C(=O)Cc3ccccc3)c12 yielded %Inh of 63%

Quick note, %Inh for Cl.Cl.NCC(NCc1ccc(-c2ccnc3[nH]ccc23)s1)c1ccccc1 (centres unmarked) landed at 66%

Value of %Inh reported for the molecule COc1cc(Nc2nccc(-c3c(-c4cccc(NC(=O)c5c(F)cccc5F)c4)nn4ccccc34)n2)cc(OC)c1OC is 50%

The recorded %Inh for entry Cc1cccc(Nc2nc(N[C@H]3CCNC3)ncc2C(N)=O)c1.Cl equals 88%

Given item COc1cccc(NC(=O)NC2CCN(c3ccnc(Nc4cc(OC)c(OC)c(OC)c4)n3)C2)c1 (centres unmarked) , the value recorded as its %Inh is 76%

Per the record, CN1CCN(CCCNc2nccc(-c3c(-c4ccc(F)cc4)nn4cc(C(F)(F)F)ccc34)n2)CC1 has %Inh of 30%

Kindly note the recorded %Inh for FC(F)(F)c1ccc(/C=C/c2cncnc2Nc2ccc3[nH]c(Cc4ccccc4)nc3c2)cc1 , which is 12%

###

Kindly supply the reported %Inh values for the records listed here.
Test system: PLK3
run-conditions: concentration: 1 μM, replicates: in singlicate; n = 1
Give a bare numeral; the unit % is implied.

Lookup result for CC(C)(C)c1ccc2nccc(Nc3cccc(O)c3)c2c1 ; measured %Inh: 0

Measured %Inh, COCCOCCOc1cc2ncc3c4ccc(C#N)cc4[nH]c3c2cc1OC : 0

get_value(item= COc1cc(Nc2nccc(-c3c(-c4cccc(NC(=O)c5c(F)cccc5F)c4)nn4ncccc34)n2)cc(OC)c1OC , readout=%Inh) returns 92.7

Form field %Inh, entry COc1cc(Nc2nccc(-c3c(-c4cccc(NC(=O)c5c(F)cccc5F)c4)nn4ccccc34)n2)cc(OC)c1OC : 0

Form field %Inh, entry Cl.Cl.NCC(NC(=O)c1cc(-c2ccccc2)c(-c2ccnc3[nH]ccc23)s1)c1ccccc1 (stereo not drawn) : 0

Consider COc1cc2c(cc1OCCN1CCNCC1)ncc1c3ccc(C#N)cc3[nH]c21 . Its measured %Inh is 20

// FC(F)(F)c1ccc(/C=C/c2cncnc2Nc2ccc3[nH]c(Cc4ccccc4)nc3c2)cc1 : %Inh value = 0

For reference, reported %Inh for Cc1ccc(S(=O)(=O)Nc2ccc(Nc3nccc(Nc4cccc5[nH]ncc45)n3)cc2)cc1 stands at 0

Looking up COc1cccc(NC(=O)NC2CCN(c3ccnc(Nc4cc(OC)c(OC)c(OC)c4)n3)C2)c1 (stereo not drawn) , I found its %Inh recorded as 12

For reference, reported %Inh for CC(=O)N1CCN(c2ccc(Nc3nccc(-c4sc(C(C)C)nc4-c4cccc(NS(=O)(=O)c5cccc(Cl)c5)c4)n3)cn2)CC1 stands at 0

Please fill in: %Inh reported for O=C(Nc1n[nH]c2nc(-c3ccc(O)cc3)ccc12)C1CC1 = 0

// recorded %Inh for COc1cc(Nc2nccc(N3CCC(NC(=O)c4cc5ccccc5s4)C3)n2)cc(OC)c1OC (stereo not drawn) : 14

# %Inh of CN(c1ccc(NC(=O)Nc2cc(C(F)(F)F)ccc2F)cc1)c1ccnc(Nc2ccc(S(N)(=O)=O)cc2)n1 = 56

Item: Cn1cc(-c2[nH]c3cc(NC(=O)[C@H](N)C4CCCCC4)cc4c3c2C=NNC4=O)cn1 | %Inh: 36

Reported %Inh for Cc1ccc(C)c(NC(=O)NC2CCN(c3ccnc(Nc4ccc(F)cc4)n3)C2)c1 (stereo not drawn) was 0
